biological target: biotinylated His-Avi-TEAD (194-411) (UniProt P28347); assay: SSM screen, enrichment after two rounds of sorting
resultType: enrichment score

Answered cases to consult:
1) GSPDEYGERAKECCKKGDIQCCLRYFEESGDPNVMLICLFCP (designed binder) [I05G variant of SEQ ID NO: 1] = -3.97
2) GSPVEYIERAKECCKKGDIQCCLRYFEESGDPNVMLICLFCP (designed binder) [D02V variant of SEQ ID NO: 1] = -2.34
3) GSPDESIERAKECCKKGDIQCCLRYFEESGDPNVMLICLFCP (designed binder) [Y04S variant of SEQ ID NO: 1] = -0.74
4) GSPDEYIERAKECCKKGVIQCCLRYFEESGDPNVMLICLFCP (designed binder) [D16V variant of SEQ ID NO: 1] = -7.81
5) GSPDEYIERAKSCCKKGDIQCCLRYFEESGDPNVMLICLFCP (designed binder) [E10S variant of SEQ ID NO: 1] = -2.47

I: GSPDEYIERAKECCKKADIQCCLRYFEESGDPNVMLICLFCP (designed binder) [G15A variant of SEQ ID NO: 1]
II: GSPDEYIERIKECCKKGDIQCCLRYFEESGDPNVMLICLFCP (designed binder) [A08I variant of SEQ ID NO: 1]
I'd appreciate it if you could identify which of I and II has the greater enrichment score. # respond with the chosen item's label
I
(I: 1.89, II: -8.31)

1: GSPDEYIERAKECCKKGDFQCCLRYFEESGDPNVMLICLFCP (designed binder) [I17F variant of SEQ ID NO: 1]
2: GSPDEYIYRAKECCKKGDIQCCLRYFEESGDPNVMLICLFCP (designed binder) [E06Y variant of SEQ ID NO: 1]
3: GSPDEYISRAKECCKKGDIQCCLRYFEESGDPNVMLICLFCP (designed binder) [E06S variant of SEQ ID NO: 1]
Ranking field: enrichment score; order: falling. // list labels; follow requested order
3, 2, 1

P: GSLDEYIERAKECCKKGDIQCCLRYFEESGDPNVMLICLFCP (designed binder) [P01L variant of SEQ ID NO: 1]
Q: GSPDEFIERAKECCKKGDIQCCLRYFEESGDPNVMLICLFCP (designed binder) [Y04F variant of SEQ ID NO: 1]
R: GSPDEYIHRAKECCKKGDIQCCLRYFEESGDPNVMLICLFCP (designed binder) [E06H variant of SEQ ID NO: 1]
S: GSPDEYIERAKECCKKGDVQCCLRYFEESGDPNVMLICLFCP (designed binder) [I17V variant of SEQ ID NO: 1]
T: GSPDEYIEYAKECCKKGDIQCCLRYFEESGDPNVMLICLFCP (designed binder) [R07Y variant of SEQ ID NO: 1]
Ordering: ascending enrichment score. // list labels; follow requested order
P, R, T, Q, S

1: GSPDEYIEREKECCKKGDIQCCLRYFEESGDPNVMLICLFCP (designed binder) [A08E variant of SEQ ID NO: 1]
2: GSPDEYIERAKECCKKGDRQCCLRYFEESGDPNVMLICLFCP (designed binder) [I17R variant of SEQ ID NO: 1]
3: GSPDEYIERAKICCKKGDIQCCLRYFEESGDPNVMLICLFCP (designed binder) [E10I variant of SEQ ID NO: 1]
4: GSPDEYIERAKECCKKGTIQCCLRYFEESGDPNVMLICLFCP (designed binder) [D16T variant of SEQ ID NO: 1]
5: GSPDEYIEFAKECCKKGDIQCCLRYFEESGDPNVMLICLFCP (designed binder) [R07F variant of SEQ ID NO: 1]
Ranking field: enrichment score; order: falling. // list labels; follow requested order
2, 3, 5, 1, 4
(2: 0.46, 3: -0.65, 5: -1.04, 1: -2.66, 4: -10)
